Reference for the values: PubChem BioAssay AID256

Below, each entry is listed with its recorded T/C.
Test system: CD2F1 mice, L1210 leukemia ip, survival T/C
Assay remarks: NCI In Vivo Anticancer Drug Screen. Data for tumor model L1210 Leukemia (intraperitoneal) in CD2F1 (CDF1) mice
Measurement conditions: endpoint: mean survival time; dose: 100.0 mg/kg/injection; schedule: Q01DX001 (ip); vehicle: saline; higher = longer survival
Inconclusive results and toxic doses are left out.

These solved cases illustrate the format of a correct answer.
[
  {
    "Molecule": "Cc1nc(-c2ccccc2)[nH]c(=O)c1Cc1cc2c(cc1O)OCC2",
    "T/C": "100 % of control"
  },
  {
    "Molecule": "O=Cc1ccc[nH]1",
    "T/C": "94 % of control"
  },
  {
    "Molecule": "OCCc1ccncc1",
    "T/C": "103 % of control"
  }
]

Fill in the recorded T/C for this molecule, with CD2F1 mice, L1210 leukemia ip, survival T/C as test system: Nc1ccc(CC(=O)Nc2ccc(S(=O)(=O)F)cc2)cc1
102 % of control

Note, next up: CNC(=O)c1ccc2ccccc2c1
95 % of control

One more molecule: NC(CO)C(O)C(O)C(O)CO (stereo unspecified)
106 % of control

What do you get for NC1(C(=O)O)CCCC1.[Pb] ?
90 % of control
